Biological target: HLA-A*68:02
Experiment: IEDB peptide-MHC binding, purified MHC/competitive/radioactivity; filed as Kd, often an IC50 or EC50 that approximates it; bounds were set here for any values at or beyond the usual limits of such assays
Details: source organism: Dengue virus 3 Martinique/1243/1999
property.label: Kd (nM)
// note: answer is a bare numeric in nM

>>> result_value("LTVAWRTATL")
32.4

Req: What value of measured Kd is listed for "YSIPATLLV" ?
Resp: 16.9

---

Biological target: HLA-A*02:11
Test: IEDB peptide-MHC binding, purified MHC/direct/fluorescence; filed as Kd, often an IC50 or EC50 that approximates it; bounds were set here for any values at or beyond the usual limits of such assays
Conditions: source organism: Campylobacter jejuni subsp. jejuni HB93-13
property.label: Kd (nM)
Answer in nM, number only, no unit symbol.

Req: Data request, read-out Kd, for "SLNLAKEAV"
Resp: 3

---

Quick reference for Kd among some sequences
Biological target: HLA-A*11:01
Assay: IEDB peptide-MHC binding, purified MHC/direct/fluorescence; filed as Kd, often an IC50 or EC50 that approximates it; bounds were set here for any values at or beyond the usual limits of such assays
Conditions: source organism: Coxiella burnetii

Check out these entries, answers already filled in.
>>> result_value("YHFDPVHHL")
"≥ 20 µM"
>>> result_value("VFFKQWFEK")
"0.163 µM"

With those in mind, consider the next sequence.
Req: Dear colleague, I am looking for the recorded Kd of the following sequence: "PEIRRWIIF"
Resp: ≥ 20 µM

---

Target: HLA-A*03:01
Assay: IEDB peptide-MHC binding, purified MHC/competitive/radioactivity; filed as Kd, often an IC50 or EC50 that approximates it; bounds were set here for any values at or beyond the usual limits of such assays
Details: source organism: Dengue virus 2 Jamaica/1409/1983
# pKd annotations
Here pKd is given on a logarithmic scale as minus log10 of the concentration in mol/L.

>>> result_value("AINVLRGFRK")
7.04
>>> result_value("AIFLTTLSR")
7.21

Req: I have this sequence here, "KLGEFGKAK" , and I need its recorded pKd.
Resp: 7.66

---

Target: HLA-B*15:17
Assay: IEDB peptide-MHC binding, purified MHC/direct/fluorescence; filed as Kd, often an IC50 or EC50 that approximates it; bounds were set here for any values at or beyond the usual limits of such assays
Conditions: source organism: Yellow fever virus 17D
property.label: Kd (µM)
Write it as a number; the unit µM goes unstated.

Req: Return Kd measured with HLA-B*15:17 given this sequence: "KTNDRKWCF"
Resp: 0.0266

---

Biological target: HLA-A*29:02
Test: IEDB peptide-MHC binding, purified MHC/direct/fluorescence; filed as Kd, often an IC50 or EC50 that approximates it; bounds were set here for any values at or beyond the usual limits of such assays
Conditions: source organism: Yellow fever virus
pKd: −log10 of the molar value.
property.label: pKd

Req: Given the entry "VNRWLFRHL" , report its measured pKd.
Resp: ≤ 4.70

---

Target: HLA-B*57:01
Experiment: IEDB peptide-MHC binding, purified MHC/competitive/fluorescence; filed as Kd, often an IC50 or EC50 that approximates it; bounds were set here for any values at or beyond the usual limits of such assays
Conditions: source organism: Araucaria virus
pKd: −log10 of the molar value.
property.label: pKd

Req: I would be grateful if you could share the reported pKd for "LYVAGVPEL" .
Resp: ≤ 4.70
